test system: HepG2; experiment: Antiproliferative activity against human HepG2 cells after 72 hrs by MTT assay; assay type: functional, cell-based; details: HepG2, 72 h
value-kind: IC50

Consider the following illustrative entries.
INSERT INTO results (molecular_string, test_system, data_value) VALUES
  ('Cl.O=C(Nc1nc2ccccc2[nH]1)c1sc2cc(C3=NCCN3)ccc2c1Cl', 'HepG2', '2.47 µM'),
  ('Cl.O=C(Nc1nc2ccc(C3=NCCN3)cc2[nH]1)c1sc2ccccc2c1Cl', 'HepG2', '5.41 µM'),
  ('O=C(Nc1nc2ccc(C3=NCCN3)cc2s1)c1sc2cc([N+](=O)[O-])ccc2c1Cl', 'HepG2', '6.43 µM'),
  ('O=C(Nc1nc2ccc(C3=NCCN3)cc2s1)c1sc2cc(C3=NCCN3)ccc2c1Cl', 'HepG2', '95.2 µM'),
  ('O=C(Nc1nc2ccccc2s1)c1sc2cc(C3=NCCN3)ccc2c1Cl', 'HepG2', '14.2 µM'),
  ('O=C(Nc1nc2ccc([N+](=O)[O-])cc2[nH]1)c1sc2cc(C3=NCCN3)ccc2c1Cl', 'HepG2', '2.23 µM');

Report IC50 for O=C(Nc1nc2ccc(C3=NCCN3)cc2s1)c1sc2ccccc2c1Cl please.
4.51 µM

Report IC50 for Cl.Cl.O=C(Nc1nc2ccc(C3=NCCN3)cc2[nH]1)c1sc2cc(C3=NCCN3)ccc2c1Cl please.
> 100 µM

* * *

target: DNA topoisomerase 1 (Homo sapiens) (UniProt P11387); assay: Inhibition of human topoisomerase-1 assessed as increase in accumulation of supercoiled pUC19 DNA at 1 to 50 uM by ethidium bromide staining based agarose gel electrophoresis
Sequence (P11387 whole entry): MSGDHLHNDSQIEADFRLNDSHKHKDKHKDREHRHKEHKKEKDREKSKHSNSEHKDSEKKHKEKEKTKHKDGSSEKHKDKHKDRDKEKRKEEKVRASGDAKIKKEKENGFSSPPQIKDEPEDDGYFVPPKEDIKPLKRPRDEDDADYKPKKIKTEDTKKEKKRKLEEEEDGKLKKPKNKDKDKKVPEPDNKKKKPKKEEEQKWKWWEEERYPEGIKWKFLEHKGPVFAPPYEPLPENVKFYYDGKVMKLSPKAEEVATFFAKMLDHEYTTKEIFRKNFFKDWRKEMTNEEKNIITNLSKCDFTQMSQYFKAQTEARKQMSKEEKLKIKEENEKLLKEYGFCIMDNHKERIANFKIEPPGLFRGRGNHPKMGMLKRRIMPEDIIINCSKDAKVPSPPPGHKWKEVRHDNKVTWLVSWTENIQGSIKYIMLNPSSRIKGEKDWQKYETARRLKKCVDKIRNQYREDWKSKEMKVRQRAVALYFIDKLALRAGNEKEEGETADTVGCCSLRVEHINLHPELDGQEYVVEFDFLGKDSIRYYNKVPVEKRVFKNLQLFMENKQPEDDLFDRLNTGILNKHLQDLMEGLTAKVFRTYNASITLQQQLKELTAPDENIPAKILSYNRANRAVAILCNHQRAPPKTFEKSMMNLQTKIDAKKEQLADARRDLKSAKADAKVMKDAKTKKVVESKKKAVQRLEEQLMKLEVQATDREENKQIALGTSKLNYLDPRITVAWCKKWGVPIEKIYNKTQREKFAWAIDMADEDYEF
Activity calls are given as the source filed them. The calls are words filed in the database; no cut-off is given here.
value-kind: inhibition

INSERT INTO measurements (molecular_string, data_value) VALUES
  ('O=C(Nc1nc2ccc([N+](=O)[O-])cc2[nH]1)c1sc2cc(C3=NCCN3)ccc2c1Cl', 'Active'),
  ('Cl.Cl.O=C(Nc1nc2ccc(C3=NCCN3)cc2[nH]1)c1sc2cc(C3=NCCN3)ccc2c1Cl', 'Active'),
  ('Cl.O=C(Nc1nc2ccccc2[nH]1)c1sc2cc(C3=NCCN3)ccc2c1Cl', 'Active');

* * *

system: WI-38; experiment: Cytotoxicity against human WI38 cells after 72 hrs by MTT assay; assay type: cell-based; details: WI-38, 72 h
value-kind: log10 IC50 (log10 of the value in µM)
Quick note: numbers are log10 of IC50, with µM as the unit.

Consider the following illustrative entries.
INSERT INTO measurements (molecular_string, data_value) VALUES
  ('Cl.Cl.O=C(Nc1nc2ccc(C3=NCCN3)cc2[nH]1)c1sc2cc(C3=NCCN3)ccc2c1Cl', 1.75),
  ('O=C(Nc1nc2ccc([N+](=O)[O-])cc2[nH]1)c1sc2cc(C3=NCCN3)ccc2c1Cl', 0.61),
  ('O=C(Nc1nc2ccc(C3=NCCN3)cc2s1)c1sc2cc(C3=NCCN3)ccc2c1Cl', 1.94);

Report log10 IC50 for Cl.O=C(Nc1nc2ccccc2[nH]1)c1sc2cc(C3=NCCN3)ccc2c1Cl please.
0.47

Report log10 IC50 for Cl.O=C(Nc1nc2ccc(C3=NCCN3)cc2[nH]1)c1sc2ccccc2c1Cl please.
1.00

Report log10 IC50 for O=C(Nc1nc2ccccc2s1)c1sc2cc(C3=NCCN3)ccc2c1Cl please.
0.63

Report log10 IC50 for O=C(Nc1nc2ccc(C3=NCCN3)cc2s1)c1sc2ccccc2c1Cl please.
0.70

* * *

tested on: Calf thymus DNA; assay: Binding affinity to calf thymus duplex DNA assessed as change in melting temperature at drug to DNA ratio of 0.5 measured for every mins by spectrophotometric analysis; assay type: nucleic-acid assay; conditions: Bos taurus
Classify: label 1 when ΔTm is strictly less than 1 °C; label 0 when ΔTm is not.

INSERT INTO measurements (molecular_string, qualitative_label) VALUES
  ('O=C(Nc1nc2ccc(C3=NCCN3)cc2s1)c1sc2cc([N+](=O)[O-])ccc2c1Cl', 'label 1'),
  ('Cl.O=C(Nc1nc2ccc(C3=NCCN3)cc2[nH]1)c1sc2ccccc2c1Cl', 'label 0'),
  ('O=C(Nc1nc2ccc([N+](=O)[O-])cc2[nH]1)c1sc2cc(C3=NCCN3)ccc2c1Cl', 'label 0');

Please state whether ΔTm is below 1 °C for Cl.O=C(Nc1nc2ccccc2[nH]1)c1sc2cc(C3=NCCN3)ccc2c1Cl
label 0

Please state whether ΔTm is below 1 °C for O=C(Nc1nc2ccc(C3=NCCN3)cc2s1)c1sc2ccccc2c1Cl
label 1

Please state whether ΔTm is below 1 °C for Cl.Cl.O=C(Nc1nc2ccc(C3=NCCN3)cc2[nH]1)c1sc2cc(C3=NCCN3)ccc2c1Cl
label 0

* * *

test system: Calf thymus DNA; assay: Binding affinity to calf thymus duplex DNA assessed as change in melting temperature at drug to DNA ratio of 1 measured for every mins by spectrophotometric analysis; assay type: nucleic-acid assay; conditions: Bos taurus
value-kind: ΔTm (°C)
Quick note: give the figure in °C, leave out the unit.

Consider the following illustrative entries.
INSERT INTO results (molecular_string, unit_info, data_value) VALUES
  ('Cl.O=C(Nc1nc2ccc(C3=NCCN3)cc2[nH]1)c1sc2ccccc2c1Cl', '°C', 3.9),
  ('O=C(Nc1nc2ccc(C3=NCCN3)cc2s1)c1sc2cc([N+](=O)[O-])ccc2c1Cl', '°C', 0.8),
  ('O=C(Nc1nc2ccc(C3=NCCN3)cc2s1)c1sc2cc(C3=NCCN3)ccc2c1Cl', '°C', 1.5);

Report ΔTm for Cl.O=C(Nc1nc2ccccc2[nH]1)c1sc2cc(C3=NCCN3)ccc2c1Cl please.
6.3

Report ΔTm for O=C(Nc1nc2ccc(C3=NCCN3)cc2s1)c1sc2ccccc2c1Cl please.
-1.7

Report ΔTm for O=C(Nc1nc2ccc([N+](=O)[O-])cc2[nH]1)c1sc2cc(C3=NCCN3)ccc2c1Cl please.
2.4

* * *

test system: HeLa; test: Antiproliferative activity against human HeLa cells after 72 hrs by MTT assay; type: functional, cell-based
The following compounds are listed with their measured pIC50 values.
Value format note: pIC50 is -log10 of concentration (mol/L); just state the number.

INSERT INTO assay_data (molecular_string, test_system, data_value) VALUES
  ('Cl.O=C(Nc1nc2ccccc2[nH]1)c1sc2cc(C3=NCCN3)ccc2c1Cl', 'HeLa', 5.64),
  ('O=C(Nc1nc2ccc([N+](=O)[O-])cc2[nH]1)c1sc2cc(C3=NCCN3)ccc2c1Cl', 'HeLa', 5.58),
  ('Cl.O=C(Nc1nc2ccc(C3=NCCN3)cc2[nH]1)c1sc2ccccc2c1Cl', 'HeLa', 5.41),
  ('O=C(Nc1nc2ccc(C3=NCCN3)cc2s1)c1sc2ccccc2c1Cl', 'HeLa', 5.39),
  ('O=C(Nc1nc2ccc(C3=NCCN3)cc2s1)c1sc2cc([N+](=O)[O-])ccc2c1Cl', 'HeLa', 5.25),
  ('O=C(Nc1nc2ccccc2s1)c1sc2cc(C3=NCCN3)ccc2c1Cl', 'HeLa', 5.94);

Requested read-out pIC50, target or system HeLa, entry O=C(Nc1nc2ccc(C3=NCCN3)cc2s1)c1sc2cc(C3=NCCN3)ccc2c1Cl
4.31
